# run_description: activators of inactive X chromosome reactivation, primary screen, imaging, XiGFP fibroblasts, GFP high-content imaging, set 2 (AID 743238);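 further: 0% = median of on-plate neutral control wells and 100% = ellipticine 6 µM median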
# applied_conditions: XiGFP mouse fibroblasts, % GFP-positive cells imaging, 3 d; at 7.58 µM; active compounds read high; cells co-treated with 5-aza-dC sensitizer; scaled so ellipticine positive control = 100%
In all, about 360,000 compounds went through this assay and about 200 (0.056%) were called active. The full list was thinned out, with actives kept by preference.
property: activation (%)

1. C[C@H](O)C#Cc1ccc2c(c1)O[C@@H](CN(C)Cc1cccnc1)[C@H](C)CN([C@H](C)CO)S2(=O)=O :: 0.253
2. C[C@H](NC(=O)C[C@H]1C=C[C@@H](NC(=O)C2CCOCC2)[C@@H](CO)O1)c1ccccc1 :: 0.456
3. O=C(C[C@@H]1CC[C@H]2[C@@H](COC[C@@H](O)CN2S(=O)(=O)c2cccc(F)c2)O1)NCCCN1CCOCC1 :: -0.0535
4. COc1ccc2c3c([nH]c2c1)[C@@H](CO)N(C(C)=O)CC31CCN(Cc2ccccc2Cl)CC1 :: 0.131
5. C[C@@H]1CCCCO[C@H](CN(C)Cc2ccc3c(c2)OCO3)[C@H](C)CN([C@@H](C)CO)C(=O)c2cc(NS(=O)(=O)c3cccs3)ccc2O1 :: -0.019
6. C[C@H](CO)N1C[C@H](C)[C@H](CN(C)Cc2ccc(C(=O)Nc3ccccc3N)cc2)Oc2ccc(NC(=O)Nc3ccccc3)cc2CC1=O :: 0.0505
7. COc1ccc(S(=O)(=O)Nc2cccc3c2O[C@H](CN(C)C(=O)Nc2cccc4ccccc24)[C@H](C)CN([C@@H](C)CO)C3=O)cc1 :: -0.983
